TGT: Gal6S(b1-4)GlcNAc6S
TEST_SUMMARY: glycan array binding signal (z-score within array); higher = stronger binding
TEST_SETTINGS: glycan notation: IUPAC condensed, linker removed
Only a selection was taken, and the strongest signals are over-represented in it overall.
Catalogue of glycan array binding signal (z-score) readings, one per entry.
Write the number on its own, no unit after it.

Guide cases for glycan array binding signal (z-score), answers given:
1) EULS2 M4 (Oryza sativa) (protein) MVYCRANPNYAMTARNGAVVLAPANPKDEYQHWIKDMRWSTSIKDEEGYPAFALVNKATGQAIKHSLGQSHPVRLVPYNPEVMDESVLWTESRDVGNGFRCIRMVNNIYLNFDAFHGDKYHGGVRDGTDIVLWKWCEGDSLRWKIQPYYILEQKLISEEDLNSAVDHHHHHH :: -0.349
2) Mermaid2 (Stilbonema majum) (protein) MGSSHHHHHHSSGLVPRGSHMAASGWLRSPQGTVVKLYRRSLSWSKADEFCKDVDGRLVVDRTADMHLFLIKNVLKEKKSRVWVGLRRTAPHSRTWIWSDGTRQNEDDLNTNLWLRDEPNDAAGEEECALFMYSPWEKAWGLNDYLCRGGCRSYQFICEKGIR :: -0.12
3) Erv41-EDTA (Saccharomyces cerevisiae), Q04651 (protein) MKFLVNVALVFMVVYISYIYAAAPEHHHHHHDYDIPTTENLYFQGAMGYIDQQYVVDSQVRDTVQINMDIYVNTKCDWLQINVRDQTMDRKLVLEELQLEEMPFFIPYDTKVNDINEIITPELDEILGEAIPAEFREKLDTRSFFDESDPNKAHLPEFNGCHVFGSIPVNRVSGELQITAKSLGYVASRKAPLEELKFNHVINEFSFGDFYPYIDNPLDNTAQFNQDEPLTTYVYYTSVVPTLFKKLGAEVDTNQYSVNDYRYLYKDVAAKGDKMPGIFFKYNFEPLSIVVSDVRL :: -0.128
4) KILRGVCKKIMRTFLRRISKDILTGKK [NK2 (Sus scrofa)] :: 2.85
5) CLEC-1 (Homo sapiens), Q9NZH3 (protein) MQAKYSSTRDMLDDDGDTTMSLHSQASATTRHPEPRRTEHRAPSSTWRPVALTLLTLCLVLLIGLAAWGLLFFQYYQLSNTGQDTISQMEERLGNTSQELQSLQVQNIKLAGSLQHVAEKLCRELYNKAGAHRCSPCTEQWKWHGDNCYQFYKDSKSWEDCKYFCLSENSTMLKINKQEDLEFAASQSYSEFFYSYWTGLLRPDSGKAWLWMDGTPFTSELFHIIIDVTSPRSRDCVAILNGMIFSKDCKELKRCVCERRAGMVKPESLHVPPETLGEGD :: 0.66

# ---- query binder ----
# input binder: B936 (Bifidobacterium sp) (protein) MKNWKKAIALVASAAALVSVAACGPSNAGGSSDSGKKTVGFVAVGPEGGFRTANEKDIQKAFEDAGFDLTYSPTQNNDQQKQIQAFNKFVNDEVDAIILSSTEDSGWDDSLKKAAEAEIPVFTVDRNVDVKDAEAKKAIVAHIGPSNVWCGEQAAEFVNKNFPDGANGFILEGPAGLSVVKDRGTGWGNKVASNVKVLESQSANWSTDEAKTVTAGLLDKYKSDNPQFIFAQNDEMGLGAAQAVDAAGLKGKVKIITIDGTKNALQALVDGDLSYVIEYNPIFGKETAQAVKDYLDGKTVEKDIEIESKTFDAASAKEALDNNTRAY ; wanted: its glycan array binding signal (z-score)
0.127

Each recorded value in this set is attributed to the supplement of paper PMC8728848.
